test-system: T1, SpoIIAA-P (phosphorylated SpoIIAA) (B. subtilis) (UniProt P10727)
T1 sequence (chain, phosphoserine at 58 (32P in the labelled tracer)): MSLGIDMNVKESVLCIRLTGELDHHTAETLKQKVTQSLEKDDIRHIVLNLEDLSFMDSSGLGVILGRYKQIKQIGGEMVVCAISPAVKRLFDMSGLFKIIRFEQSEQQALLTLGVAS
endpoint-name: KM for SpoIIAA-P (multiple turnover, 10 mM MgCl2, Michaelis-Menten fit) (µM)
Quick reminder: number only, in µM, skip the unit.

Input line: Consider the binder SpoIIE^I723S (phosphatase domain, SpoIIE^590-827) (domain or fragment) SYRVSTGAAHAAKGGGLVSGDSYSMMELGARKYAAAISDGMGNGARAHFESNETIKLLEKILESGIDEKIAIKTINSILSLRTTDEIYSTLDLSIIDLQDASCKFLKVGSTPSFIKRGDQVMKVQASNLPIGISNEFDVEVVSEQLKAGDLLIMMSDGIFEGPKHVENHDLWMKRKMKGLKTNDPQEIADLLMEEVIRTRSGQIEDDMTVVVVRIDHNTPKWASIPVPAIFQNKQEIS and give its recorded KM for SpoIIAA-P (multiple turnover, 10 mM MgCl2, Michaelis-Menten fit).
Output line: 29.1
